biological target: T1, IFN-αG (human, UniProt P01569 24-189); experiment: ProteOn, one antigen concentration
T1 construct: also called IFN-α5; alpha G
measurementName: Kd (pM)
State just the number; it will be interpreted in pM.

>  <binder>
IFWM3354 (antibody, V domains shown, VH IFWH624, VL IFWL1017; converted mAb; also called IFWB3089) VH: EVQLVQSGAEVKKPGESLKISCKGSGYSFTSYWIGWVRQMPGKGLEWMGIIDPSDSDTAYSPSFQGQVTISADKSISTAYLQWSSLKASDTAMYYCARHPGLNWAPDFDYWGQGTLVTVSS VL: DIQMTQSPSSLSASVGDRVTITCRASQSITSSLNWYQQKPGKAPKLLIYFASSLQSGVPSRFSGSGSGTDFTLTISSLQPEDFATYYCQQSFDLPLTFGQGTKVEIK

>  <readoutUnits>
pM

>  <Kd>
43

$$$$
>  <binder>
IFWM3302 (antibody, V domains shown, VH IFWH591, VL IFWL991; converted mAb; also called IFWB3037) VH: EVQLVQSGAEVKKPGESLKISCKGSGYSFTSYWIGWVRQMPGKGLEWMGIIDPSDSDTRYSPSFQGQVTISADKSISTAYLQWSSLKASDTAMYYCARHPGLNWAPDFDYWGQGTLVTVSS VL: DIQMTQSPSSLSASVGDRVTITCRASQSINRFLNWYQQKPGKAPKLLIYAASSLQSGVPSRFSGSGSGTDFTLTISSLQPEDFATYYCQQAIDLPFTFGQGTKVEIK

>  <readoutUnits>
pM

>  <Kd>
98

$$$$
>  <binder>
IFWM3323 (antibody, V domains shown, VH IFWH591, VL IFWL1053; converted mAb; also called IFWB3058) VH: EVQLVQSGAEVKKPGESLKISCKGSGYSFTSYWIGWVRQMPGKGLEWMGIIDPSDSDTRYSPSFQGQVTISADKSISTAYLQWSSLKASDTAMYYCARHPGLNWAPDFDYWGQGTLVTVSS VL: DIQMTQSPSSLSASVGDRVTITCRASQSITNHLNWYQQKPGKAPKLLIYFASSLQSGVPSRFSGSGSGTDFTLTISSLQPEDFATYYCQQAHNFPLTFGQGTKVEIK

>  <readoutUnits>
pM

>  <Kd>
94

$$$$

Then there is this binder:
Problem: What value of Kd has been recorded for this entry: IFWM3350 (antibody, V domains shown, VH IFWH624, VL IFWL1009; converted mAb; also called IFWB3085) VH: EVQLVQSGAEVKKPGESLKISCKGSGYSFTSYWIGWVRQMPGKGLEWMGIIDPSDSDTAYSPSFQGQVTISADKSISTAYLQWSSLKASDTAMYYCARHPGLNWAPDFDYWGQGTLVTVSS VL: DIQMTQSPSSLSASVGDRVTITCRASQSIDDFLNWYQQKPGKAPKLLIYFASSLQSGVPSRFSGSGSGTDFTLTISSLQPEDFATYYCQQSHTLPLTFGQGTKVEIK
Result: 98
